Items are presented alongside their recorded CC50.
# System: OVCAR-3
# test context: read-out: LC50; OVCAR-3 (Ovarian Cancer), 48 hours, SRB

compound	units of measure	CC50
CC1(C)C=Cc2c(ccc3c4c(n(O)c23)C(C)(C)C2CC35CCCN3C(=O)C2(NC5=O)C4SCC(NC(=O)CCC(N)C(=O)O)C(=O)NCC(=O)O)O1 (centres unmarked)	µM	3.13
CN(C)c1cccc2c(S(=O)(=O)NCCCCCCCCCCOc3ccc4c(c3)[N+]([O-])=C3C4=C[C@@]45NC(=O)C6(CCCN6C4=O)CC5C3(C)C)cccc12 (some centres unmarked)	µM	0.849

====

# System: MALME-3M
# test context: MALME-3M (Melanoma), 48 hours, SRB
quantity: TGI (µM)

compound	target of assay	endpoint value
CN(C)c1cccc2c(S(=O)(=O)NCCCCCCCCCCOc3ccc4c(c3)[N+]([O-])=C3C4=C[C@@]45NC(=O)C6(CCCN6C4=O)CC5C3(C)C)cccc12 (stereo partly shown) [Dansyl Analogue]	MALME-3M	2.11
Cc1cc(C)cc(-c2ccc3c(c2)[N+]([O-])=C2C3=C[C@@]34NC(=O)C5(CCCN5C3=O)CC4C2(C)C)c1 (stereo partly shown) [Biphenyl Analogue]	MALME-3M	0.244
[2H]On1c2c(c3ccc4c(c31)C=CC(C)(C)O4)C(OC([2H])([2H])[2H])[C@@]13NC(=O)C4(CCCN4C1=O)CC3C2(C)C (stereo partly shown) [Deuterated Methanol Adduct]	MALME-3M	1.56
CC1(C)C=Cc2c(ccc3c4c(n(O)c23)C(C)(C)C2CC35CCCN3C(=O)C2(NC5=O)C4SCC(NC(=O)CCC(N)C(=O)O)C(=O)NCC(=O)O)O1 (stereo not shown) [Glutathione Adduct]	MALME-3M	3.1
